# reported MIC; entries follow
- Tested on: Candida tropicalis NRRL-Y-112
- experimental-details: In vitro antifungal MIC, Candida tropicalis NRRL-Y-112
- Type: cell-based
- setup-conditions: NRRLY112; Candida tropicalis NRRL-Y-112; 35°-37° C., 48 hours; read-out: MIC
Output spec: scalar in µg/mL, unitless text.

Observe how each entry below is paired with its result.
>>> experimental_value("[O-][S+]1c2ccccc2SN1c1ccccc1 (stereo not drawn) [Example 30, 2-phenyl-1,3,2-benzodithiazole-1-oxide]")
25
>>> experimental_value("[O-][S+]1c2ccccc2SN1Cc1cccs1 (stereo not drawn)")
50
>>> experimental_value("CN(C)c1ccc(CN2Sc3ccccc3[S+]2[O-])cc1 (stereo not drawn)")
6.25
>>> experimental_value("CC(C)(C)CC(C)(C)N1Sc2ccccc2[S+]1[O-] (stereo not drawn)")
12.5
>>> experimental_value("CCCCCCCCN1Sc2ccccc2[S+]1[O-] (stereo not drawn) [Example 6, 2-n-octyl-1,3,2-benzodithiazole-1-oxide]")
0.2
>>> experimental_value("CCCCCCCN1Sc2ccccc2[S+]1[O-] (stereo not drawn) [Example 5, 2-n-heptyl-1,3,2-benzodithiazole-1-oxide]")
0.78

**Query** Sample CC(C)(C)N1Sc2ccccc2[S+]1[O-] (stereo not drawn) [Example 14, 2-t-butyl-1,3,2-benzodithiazole-1-oxide] — what was its MIC?
**Result** 3.12

**Query** Same question for CN1Sc2ccccc2[S+]1[O-] (stereo not drawn) [Example 2, 2-methyl-1,3,2-benzodithiazole-1-oxide] please.
**Result** 1.56

**Query** Same question for [O-][S+]1c2ccccc2SN1C1CC1 (stereo not drawn) please.
**Result** 1.56

**Query** Same question for CCOC(CCCN1Sc2ccccc2[S+]1[O-])OCC (stereo not drawn) please.
**Result** 12.5

**Query** Same question for [O-][S+]1c2ccccc2SN1C1C2CC3CC(C2)CC1C3 (stereo not drawn) please.
**Result** 12.5
